- System: Human RSV-A (“Long” strain)
- PROCEDURE TEXT: RSV-A assay: CPE in Hep-2 cells, ATPlite readout
- Format: cell-based
- SETTINGS: human respiratory syncytial virus, 120 h, MOI 0.1, 5-day incubation
Documented EC50 across a set of molecules

- MOLECULE: "COc1cc(C(=O)NC[C@](O)(c2cc(C(F)(F)C#N)c(F)c(-c3cc(Cl)c(F)cc3F)n2)C2CC2)cc2cn(C3(F)CC3)nc12 [Example 40]"
  TESTED TARGET: "Human RSV-A (“Long” strain)"
  RESULT: "0.01 to 0.05 µM"

### Prompt Give recorded EC50. COc1cc(C(=O)NC[C@](O)(c2cc(C3(C(N)=O)CC3)c(F)c(-c3cc(Cl)c(F)cc3F)n2)C2CC2)cc2cn(C3(F)CC3)nc12 (single isomer, unassigned) [Example 13]
### Response 0.01 to 0.05 µM

###

List of EC50 values.
- Tested on: Human RSV-A (“Long” strain)
- PROCEDURE TEXT: RSV-A assay: CPE in Hep-2 cells, ATPlite readout
- Assay type: cell-based
- SETTINGS: human respiratory syncytial virus, 120 h, MOI 0.1, 5-day incubation

// worked examples, EC50 included
- MOLECULE: "COc1cc(C(=O)NC[C@@](O)(c2ccccc2)c2cc(C(N)=O)c(F)c(-c3cc(Cl)c(F)cc3F)n2)cc2cn(C3CC3)nc12"
  RESULT: "10 to 50 nM"
- MOLECULE: "CC(C)(O)c1cc([C@@](O)(CNC(=O)c2cc(F)c3nn(C(F)F)cc3c2)C2CC2)nc(-c2ccc(F)cc2)c1F (single isomer, unassigned)"
  RESULT: "> 50 nM"

Consider the record given below.
### Prompt Look up and state reported EC50 for COc1cc(C(=O)NC[C@@](O)(c2ccccc2)c2cc(C(C)(C)O)c(F)c(-c3cc(Cl)c(F)cc3F)n2)cc2cc(Cl)c(C)nc12
### Response 10 to 50 nM

###

- System: Human RSV-A (“Long” strain)
- PROCEDURE TEXT: RSV-A assay: CPE in Hep-2 cells, ATPlite readout
- Assay type: cell-based
- SETTINGS: human respiratory syncytial virus, 120 h, MOI 0.1, 5-day incubation
REPORTED ENDPOINT: EC50

Here's what some known entries look like.
- MOLECULE: "Cc1nc2c(OC(F)F)cc(C(=O)NC[C@](O)(c3cc(C(C)(C)O)c(F)c(-c4cc(Cl)c(F)cc4F)n3)C3CC3)cc2cc1Br"
  EC50: "< 10 nM"
- MOLECULE: "COc1cc(C(=O)NC[C@](O)(c2cc(C3(C(N)=O)CC3)cc(-c3ccc(F)c(Cl)c3F)n2)C2CC2)cc2cn(C(F)F)nc12 (single isomer, unassigned)"
  EC50: "< 10 nM"
- MOLECULE: "COc1cc(C(=O)NC[C@](O)(c2cc(C(F)(F)C(N)=O)c(F)c(-c3cc(Cl)c(F)cc3F)n2)C2CC2)cc2cc(Cl)c(C)nc12 (single isomer, unassigned)"
  EC50: "> 50 nM"
- MOLECULE: "COc1cc(C(=O)NC[C@@](O)(c2ccccc2)c2cc(C(C)(C)O)c(Cl)c(-c3cc(Cl)c(F)cc3F)n2)cc2cn(C3CC3)nc12 (single isomer, unassigned)"
  EC50: "< 10 nM"
- MOLECULE: "COc1cc(C(=O)NC[C@](O)(c2cc(C3(C(N)=O)CC3)c(F)c(-c3ccc(F)c(Cl)c3F)n2)C2CC2)cc2cn(C3CC3)nc12 (single isomer, unassigned)"
  EC50: "10 to 50 nM"

### Prompt Specify EC50 for COc1cc(C(=O)NC[C@](O)(c2cc(C(F)(F)C(N)=O)c(F)c(-c3ccc(F)c(Cl)c3F)n2)C2CC2)cc2cn(C3(F)CC3)nc12 (single isomer, unassigned) and stop.
### Response < 10 nM

### Prompt Given the molecule COc1cc(C(=O)NC[C@](O)(c2cc(C3(C(N)=O)CC3)c(F)c(-c3cc(Cl)c(F)cc3F)n2)C2CC2)cc2cn(C(F)F)nc12 (single isomer, unassigned) , write its reported EC50.
### Response 10 to 50 nM

### Prompt Dear colleague, please send me the reported EC50 for N#CC1(c2cc([C@@](O)(CNC(=O)c3cc(OC4CC4)c4nn(C5(F)CC5)cc4c3)C3CC3)nc(-c3cc(Cl)c(F)cc3F)c2F)CC1 (single isomer, unassigned) when you can.
### Response 10 to 50 nM

### Prompt Find the measured EC50 of COc1cc(C(=O)NC[C@](O)(c2cc(C3(C#N)CC3)c(F)c(-c3cc(Cl)c(F)cc3F)n2)C2CC2)cc2cn(C(F)F)nc12 and report it.
### Response 10 to 50 nM

### Prompt Note down EC50 recorded for [2H]C([2H])([2H])C(O)(c1cc([C@@](O)(CNC(=O)c2cc(OC)c3nn(C4CC4)cc3c2)c2ccccc2)nc(-c2cc(Cl)c(F)cc2F)c1F)C([2H])([2H])[2H]
### Response < 10 nM
